- ASSAY PROTOCOL: Half life period in mouse serum
- Format: ADME, organism-based
MEASUREMENT TYPE: half-life (min)
Value expressed in min; do not type the unit.

Example cases with answers are listed next.
Cc1ccccc1CNC(=O)COc1ccc(Cl)cc1C(=O)c1ccccc1 : 168
O=C(c1ccccc1)c1cc(Cl)ccc1OCC(=O)N1CCc2ccccc2C1 : 72

Now take the following compound into account.
INPUT: Which measured half-life value corresponds to Cc1cc(OCCCN(C)C)ccc1NC(=O)Cc1ccc(Cl)cc1C(=O)c1ccccc1 ?
OUTPUT: 285

* * *

Overview of recorded IC50 for various compounds
- Test system: C8166
- ASSAY PROTOCOL: Inhibitory activity against syncytia formation in infected C8166 cells
- Assay type: functional, cell-based
- CONDITION NOTES: Homo sapiens
Value expressed in µg/mL; do not type the unit.

CCN(CC)CCOc1ccc(NC(=O)COc2cc(OC)ccc2C(=O)c2ccccc2)cc1 : 0.05

INPUT: Which measured IC50 value corresponds to Cc1cc(OCCCN(C)C)ccc1NC(=O)Cc1ccc(Cl)cc1C(=O)c1ccccc1 ?
OUTPUT: 0.016

INPUT: Which measured IC50 value corresponds to O=C(COc1ccc(F)cc1C(=O)c1ccccc1)Nc1ccccc1 ?
OUTPUT: 0.014

* * *

Reported log10 of IC50 for target or system Human immunodeficiency virus type 1 reverse transcriptase (Human immunodeficiency virus 1), by entry.
Base-10 log of IC50, unit µM.

O=C(COc1ccc(F)cc1C(=O)c1ccccc1)Nc1ccccc1 : -2.07

INPUT: Provide value of log10 of IC50 for this record tested with Human immunodeficiency virus type 1 reverse transcriptase (Human immunodeficiency virus 1): O=C(c1ccccc1)c1cc(Cl)ccc1OCC(=O)N1CCc2ccccc2C1
OUTPUT: -1.83

INPUT: Provide value of log10 of IC50 for this record tested with Human immunodeficiency virus type 1 reverse transcriptase (Human immunodeficiency virus 1): Cc1cc(OCCCN(C)C)ccc1NC(=O)Cc1ccc(Cl)cc1C(=O)c1ccccc1
OUTPUT: -0.12

INPUT: Provide value of log10 of IC50 for this record tested with Human immunodeficiency virus type 1 reverse transcriptase (Human immunodeficiency virus 1): O=C(COc1ccc(Cl)cc1C(=O)c1cccnc1)Nc1ccccc1
OUTPUT: -0.36

INPUT: Provide value of log10 of IC50 for this record tested with Human immunodeficiency virus type 1 reverse transcriptase (Human immunodeficiency virus 1): CCN(CC)CCOc1ccc(NC(=O)COc2ccccc2C(=O)c2ccc(OC)cc2)cc1
OUTPUT: 1.16

INPUT: Provide value of log10 of IC50 for this record tested with Human immunodeficiency virus type 1 reverse transcriptase (Human immunodeficiency virus 1): CN(C)CCCOc1ccc(NC(=O)COc2ccc(Cl)cc2C(=O)c2ccccc2)cc1
OUTPUT: -0.68

INPUT: Provide value of log10 of IC50 for this record tested with Human immunodeficiency virus type 1 reverse transcriptase (Human immunodeficiency virus 1): CN(C)CCCOc1ccc(NC(=O)Cc2ccc(Cl)cc2C(=O)c2ccccc2)cc1
OUTPUT: -0.35

* * *

- TARGET DESC: Human immunodeficiency virus type 1 reverse transcriptase (Human immunodeficiency virus 1, UniProt Q72547)
Values of IC50 strictly less than 5 µM map to t, and values of at least 5 µM map to f.

Below are worked cases with known answers.
O=C(COc1cc(Cl)c(Cl)cc1C(=O)c1ccccc1)Nc1ccccc1 : t
Cc1ccccc1CNC(=O)COc1ccc(Cl)cc1C(=O)c1ccccc1 : f
CCN(CC)CCOc1ccc(NC(=O)COc2ccc(Cl)cc2C(=O)c2ccccc2)cc1 : t
O=C(COc1ccc(Cl)cc1C(=O)c1ccccc1)Cc1ccccc1 : f
O=C(COc1ccc(Cl)cc1C(=O)c1ccccc1)Nc1ccccc1 : t

INPUT: Please let me know if O=C(COc1ccc(Cl)cc1C(=O)c1ccccc1)c1cc2ccccc2[nH]1 shows IC50 below 5 µM.
OUTPUT: t

INPUT: Please let me know if O=C(COc1ccc(Cl)cc1C(=O)c1ccccc1)NC1CCCCC1 shows IC50 below 5 µM.
OUTPUT: f

INPUT: Please let me know if CCN(CC)CCOc1ccc(NC(=O)COc2ccccc2C(=O)c2ccc(F)cc2)cc1 shows IC50 below 5 µM.
OUTPUT: f

INPUT: Please let me know if CCc1cc(OCCCN(C)C)ccc1NC(=O)Cc1ccc(Cl)cc1C(=O)c1ccccc1 shows IC50 below 5 µM.
OUTPUT: f

* * *

- ASSAY PROTOCOL: Toxicity against uninfected MT-4 cells
- Assay type: cell-based, MT4
- CONDITION NOTES: human
MEASUREMENT TYPE: IC50

Example cases with answers are listed next.
O=C(COc1ccc(Cl)cc1C(=O)c1ccccc1)Nc1ccccc1 : > 0.005 µg/mL
O=C(COc1ccc(Cl)cc1C(=O)c1ccccc1)Cc1ccccc1 : > 100 µg/mL
CCN(CC)CCOc1ccc(NC(=O)COc2ccccc2C(=O)c2ccc(OC)cc2)cc1 : 5 µg/mL

INPUT: Which measured IC50 value corresponds to CCN(CC)CCOc1ccc(NC(=O)COc2ccccc2C(=O)c2ccc(F)cc2)cc1 ?
OUTPUT: > 0.5 µg/mL

INPUT: Which measured IC50 value corresponds to O=C(c1ccccc1)c1cc(Cl)ccc1OCC(=O)N1CCc2ccccc2C1 ?
OUTPUT: > 0.5 µg/mL

* * *

- Test system: MT4
- ASSAY PROTOCOL: Cytotoxicity against uninfected MT-4 cells
- Assay type: functional, cell-based, Homo sapiens
- CONDITION NOTES: Homo sapiens, MT4; read-out: IC50
MEASUREMENT TYPE: IC50

Example cases with answers are listed next.
CC(C)(C)NC(=O)[C@@H]1C[C@@H]2CCCC[C@@H]2CN1C[C@@H](O)[C@H](Cc1ccccc1)NC(=O)[C@H](CC(N)=O)NC(=O)c1ccc2ccccc2n1 [SAQUINAVIR] : > 1 µg/mL
Nc1ccn([C@@H]2CS[C@H](CO)O2)c(=O)n1 [LAMIVUDINE] : > 100 µg/mL
c1nc2cnncc2[nH]1 : > 1 µg/mL
Cc1ccnc2c1NC(=O)c1cccnc1N2C1CC1 [NEVIRAPINE] : > 10 µg/mL

Now take the following molecule into account.
INPUT: Which measured IC50 value corresponds to CCc1cc(NCc2nc3c(Cl)ccc(Cl)c3o2)c(O)nc1C [L-697661] ?
OUTPUT: 100 µg/mL

* * *

- Test system: C8166
- ASSAY PROTOCOL: Inhibitory activity against P24 antigen formation in infected C8166 cells
- Type: functional, cell-based
- CONDITION NOTES: Homo sapiens
Overview of recorded IC50 for various compounds
Value expressed in µg/mL; do not type the unit.

Example cases with answers are listed next.
CCN(CC)CCOc1ccc(NC(=O)COc2ccccc2C(=O)c2ccc(OC)cc2)cc1 : 0.18
Cc1ccccc1CNC(=O)COc1ccc(Cl)cc1C(=O)c1ccccc1 : 0.032
O=C(COc1ccc(F)cc1C(=O)c1ccccc1)Nc1ccccc1 : 0.006

Now take the following compound into account.
INPUT: Which measured IC50 value corresponds to O=C(c1ccccc1)c1cc(Cl)ccc1OCc1nc2ccccc2[nH]1 ?
OUTPUT: 0.032

* * *

- ASSAY PROTOCOL: Half life period in mouse S9 liver preparation
- Assay type: ADME
- CONDITION NOTES: liver S9 fraction
MEASUREMENT TYPE: half-life (h)
Value expressed in h; do not type the unit.

Example cases with answers are listed next.
O=C(COc1ccc(Cl)cc1C(=O)c1ccccc1)c1cc2ccccc2[nH]1 : 3.5
O=C(c1ccccc1)c1cc(Cl)ccc1OCC(=O)N1CCc2ccccc2C1 : 2.8

Now take the following compound into account.
INPUT: Which measured half-life value corresponds to Cc1cc(OCCCN(C)C)ccc1NC(=O)Cc1ccc(Cl)cc1C(=O)c1ccccc1 ?
OUTPUT: 1.8

* * *

- ASSAY PROTOCOL: Toxicity against uninfected MT-4 cells
- Assay type: cell-based, MT4
- CONDITION NOTES: human
MEASUREMENT TYPE: IC50 (mg/L)
Value expressed in mg/L; do not type the unit.

Example cases with answers are listed next.
CCc1cc(OCCCN(C)C)ccc1NC(=O)Cc1ccc(Cl)cc1C(=O)c1ccccc1 : 10
CN(C)CCCOc1ccc(NC(=O)Cc2ccc(Cl)cc2C(=O)c2ccccc2)cc1 : 10

INPUT: Which measured IC50 value corresponds to Cc1ccccc1CNC(=O)COc1ccc(Cl)cc1C(=O)c1ccccc1 ?
OUTPUT: 10

INPUT: Which measured IC50 value corresponds to O=C(COc1ccc(F)cc1C(=O)c1ccccc1)Nc1ccccc1 ?
OUTPUT: 10

INPUT: Which measured IC50 value corresponds to CCN(CC)CCOc1ccc(NC(=O)COc2ccc(Cl)cc2C(=O)c2ccccc2)cc1 ?
OUTPUT: 10

INPUT: Which measured IC50 value corresponds to O=C(COc1ccc(-n2ccnc2)cc1C(=O)c1ccccc1)Nc1ccccc1 ?
OUTPUT: 10

INPUT: Which measured IC50 value corresponds to CCN(CC)CCOc1ccc(NC(=O)COc2cc(OC)ccc2C(=O)c2ccccc2)cc1 ?
OUTPUT: 5
